Test: physchem
Conditions: pH 7.4, aqueous buffer, kinetic from dmso stock, Solubility (pH 7.4)
PARAMETER_MEASURED: log10 solubility at 24 h (log10 of the value in µg/mL)
Lab note - solubility at 24 h converted to log10 from values in µg/mL.

Please review the following examples before continuing.
CCNC(=O)Nc1nc2cc(-c3ccc(C4=NOC(C)(C(=O)O)C4)nc3)cc(-c3ccccn3)c2s1 (stereo not shown) [Compound 183]: 2.00
CCNC(=O)Nc1nc2cc(-c3cnc(N4CCC(C)(C(=O)O)CC4)nc3)cc(-c3cc(C#N)ccn3)c2s1 [Compound 16]: 0.80
CCNC(=O)Nc1nc2cc(-c3cnc(N4CCC(CC)(C(=O)O)CC4)nc3)nc(-c3ccccn3)c2s1 [Compound 210]: 2.30
CCNC(=O)Nc1nc2cc(-c3cnc(N4CCC(C)(C(=O)O)CC4)nc3)cc(-c3ncc(C)cc3C#N)c2s1 [Compound 65]: 1.10
CCNC(=O)Nc1nc2cc(-c3cnc(N4CCC(O)C(C)(C(=O)O)C4)nc3)cc(-c3ccccn3)c2s1 (stereo not shown) [Compound 3]: 2.60

Moving on to the next compound.
Recorded log10 solubility at 24 h for CCNC(=O)Nc1nc2cc(-c3cnc(N4CCC(C)(C(=O)O)CC4)nc3)cc(-c3nccc(OC)c3C#N)c2s1 [Compound 90] , please?
2.00

###

Test: physchem
Conditions: pH 7.4, aqueous buffer, kinetic from dmso stock, Solubility (pH 7.4)
PARAMETER_MEASURED: solubility at 24 h (µg/mL)
Give bare numbers, in µg/mL.

CCNC(=O)Nc1nc2cc(-c3cnc(N4CCC(C)(C(=O)O)CC4)nc3)cc(C#Cc3nnc(C)s3)c2s1: 100
CCNC(=O)Nc1nc2cc(-c3cnc(N4CCC(CC)(C(=O)O)CC4)nc3)cc(C(=O)CC)c2s1: 100
CCNC(=O)Nc1nc2cc(-c3cnc(N4CCC(C)(C(=O)O)CC4)nc3)cc(-c3ncccc3C#N)c2s1: 100

Parameter requested: solubility at 24 h. Apply to each item below.
1. CCNC(=O)Nc1nc2cc(-c3cnc(N4CCC(C#N)(C(=O)O)CC4)nc3)cc(-c3ccccn3)c2s1
2. CCNC(=O)Nc1nc2cc(-c3cnc(N(C)C4CCC(C)(C(=O)O)CC4)nc3)cc(-c3ccccn3)c2s1 (stereo not shown)

[200, 200]

###

Experiment: Pharmacokinetic assay, IV and oral PK profile, mouse
Format: in vivo
Details: single peroral dose 3 mg/kg, plasma
PARAMETER_MEASURED: Cmaxoral (ng/mL)
Give bare numbers, in ng/mL.

Take a look at these entries with their results.
C=CCC1(C(=O)O)CCN(c2ncc(-c3cc(-c4ccccn4)c4sc(NC(=O)NCC)nc4c3)cn2)CC1: 4400
CCNC(=O)Nc1nc2cc(-c3ccc(N4CCC(C)(C(=O)O)CC4)nc3)cc(-c3ccccn3)c2s1: 1700
CCNC(=O)Nc1nc2cc(-c3cnc(N4CCC(C)(C(=O)O)CC4)nc3)cc(/C(C)=N/OC)c2s1: 2000

Okay, next one:
Reported Cmaxoral for `CCNC(=O)Nc1nc2cc(-c3cnc(N4CCC(CC)(C(=O)O)CC4)nc3)cc(-c3ccccn3)c2s1` : what is it?
6100

###

Assay: physchem
Conditions: pH 7.4, aqueous buffer, kinetic from dmso stock, Solubility (pH 7.4)
Consider the following compounds; for each one, report its solubility at 24 h.
Numbers only, in µg/mL.

Return reported solubility at 24 h values for all items listed beneath this line.
1. CCNC(=O)Nc1nc2cc(-c3cnc(N4CCC(C)(C(=O)O)CC4)c(F)c3)cc(-c3ccccn3)c2s1
2. CCCC1(C(=O)O)CCN(c2ncc(-c3cc(-c4nccc(C)n4)c4sc(NC(=O)NCC)nc4c3)cn2)CC1
3. CCNC(=O)Nc1nc2cc(-c3cnc(N4CCC(C)(C(=O)O)CC4)nc3)cc(-c3cc(OC(C)C)ncn3)c2s1
4. CCNC(=O)Nc1nc2cc(-c3cnc(N4CCC(CC)(C(=O)O)CC4)nc3)ccc2s1
5. CCCC1(C(=O)O)CCN(c2ncc(-c3cc(-c4ncnc5[nH]ccc45)c4sc(NC(=O)NCC)nc4c3)cn2)CC1
6. CCNC(=O)Nc1nc2cc(-c3cnc(N4CCC(C)(C(=O)O)CC4)nc3)cc(-c3cc(=O)n(C(C)C)cn3)c2s1

1. 50
2. 400
3. 400
4. 100
5. 50
6. 200
